assay-remarks: Metabolic stability in mouse liver microsomes assessed as parent compound remaining at […] incubated for 5 mins measured up to 60 mins by LC-MS/MS analysis
Assay type: ADME, microsome
measurement-parameters: read-out: Stability
measure-name: remaining at 60 min

Reported remaining at 60 min of Cn1c(=O)cc(N2CCC[C@@H](N)C2)n(Cc2cc(F)ccc2C#N)c1=O : > 80%

----------
Give half-life for every item shown.
assay-remarks: Half life in rat liver microsomes at […] by LC-MS/MS analysis
Type: ADME, microsome
Answer format: numeric, h implied, no suffix.

Reported half-life of CS(=O)(=O)c1cccc(-c2c[nH]c3c(=O)n(Cc4cc(F)ccc4C#N)c(N4CCC[C@@H](N)C4)nc23)c1 : 1.65

Reported half-life of CS(=O)(=O)c1ccc(-c2c[nH]c3c(=O)n(Cc4cc(F)ccc4C#N)c(N4CCC[C@@H](N)C4)nc23)cc1F : 2.78

Reported half-life of N#Cc1ccc(F)cc1Cn1c(N2CCC[C@@H](N)C2)nc2c(-c3ccsc3)c[nH]c2c1=O : 0.783

----------
assay-remarks: Metabolic stability in monkey liver microsomes assessed as parent compound remaining at […] incubated for 5 mins measured up to 60 mins by LC-MS/MS analysis
Format: ADME, Macaca mulatta, microsome
measurement-parameters: rhesus monkey, read-out: Stability
measure-name: remaining at 60 min

Reported remaining at 60 min of Cn1c(=O)cc(N2CCC[C@@H](N)C2)n(Cc2cc(F)ccc2C#N)c1=O [TRELAGLIPTIN] : > 80%

----------
assay-remarks: Half life in rat liver microsomes at […] by LC-MS/MS analysis
Format: ADME, microsome
Give half-life for every item shown.
Answer format: numeric, h implied, no suffix.

Reported half-life of N#Cc1ccc(F)cc1Cn1c(N2CCC[C@@H](N)C2)nc2c(-c3cccs3)c[nH]c2c1=O : 0.609

Reported half-life of N#Cc1ccc(F)cc1Cn1c(N2CCC[C@@H](N)C2)nc2c(-c3ccc(F)cc3)c[nH]c2c1=O : 1.2

Reported half-life of N#Cc1ccc(F)cc1Cn1c(N2CCC[C@@H](N)C2)nc2c(F)c[nH]c2c1=O : 0.838

Reported half-life of CS(=O)(=O)c1ccccc1-c1c[nH]c2c(=O)n(Cc3cc(F)ccc3C#N)c(N3CCC[C@@H](N)C3)nc12 : 3.28

Reported half-life of CS(=O)(=O)c1ccc(-c2c[nH]c3c(=O)n(Cc4cc(F)ccc4C#N)c(N4CCC[C@@H](N)C4)nc23)c(F)c1 : 1.59

Reported half-life of N#Cc1ccc(F)cc1Cn1c(N2CCC[C@@H](N)C2)nc2c(Br)c[nH]c2c1=O : 0.625

----------
assay-remarks: Metabolic stability in dog liver microsomes assessed as parent compound remaining at […] incubated for 5 mins measured up to 60 mins by LC-MS/MS analysis
Assay type: ADME, Canis lupus familiaris, microsome
measurement-parameters: read-out: Stability
measure-name: remaining at 60 min

Reported remaining at 60 min of Cn1c(=O)cc(N2CCC[C@@H](N)C2)n(Cc2cc(F)ccc2C#N)c1=O : > 80%

----------
assay-remarks: Half life in human liver microsomes at […] by LC-MS/MS analysis
Type: ADME, microsome
measure-name: half-life (h)
Answer format: numeric, h implied, no suffix.

Reported half-life of N#Cc1ccc(F)cc1Cn1c(N2CCC[C@@H](N)C2)nc2c(F)c[nH]c2c1=O : 1.64

Reported half-life of N#Cc1ccc(F)cc1Cn1c(N2CCC[C@@H](N)C2)nc2cc[nH]c2c1=O : 3.33

Reported half-life of N#Cc1ccc(F)cc1Cn1c(N2CCC[C@@H](N)C2)nc2c(-c3ccsc3)c[nH]c2c1=O : 2.67

Reported half-life of N#Cc1ccc(F)cc1Cn1c(N2CCC[C@@H](N)C2)nc2c(-c3cccs3)c[nH]c2c1=O : 0.585

Reported half-life of N#Cc1ccc(F)cc1Cn1c(N2CCC[C@@H](N)C2)nc2c(-c3ccc(F)cc3)c[nH]c2c1=O : 3.01

Reported half-life of N#Cc1ccc(F)cc1Cn1c(N2CCC[C@@H](N)C2)nc2c(Br)c[nH]c2c1=O : 2.21

Reported half-life of CC(C)S(=O)(=O)c1ccc(-c2c[nH]c3c(=O)n(Cc4cc(F)ccc4C#N)c(N4CCC[C@@H](N)C4)nc23)cc1 : 0.722
